Data credit: patent US9862726B2

# targetDesc: μ-opioid receptor (Homo sapiens (Human), UniProt P35372)
# assay: μ-opioid receptor [35S]GTPγS functional assay (HEK-293 cells)
# Assay type: biochemical
Give measured pEC50 for each item. Keep answers brief.
Answers are plain numbers, as −log10 of the molar value.

// worked examples, pEC50 included
# smilesCode, measuredValue
rows = [
    ("CN[C@]12CC[C@@]3(OC1)[C@H]1Cc4ccc(O)cc4[C@@]3(CCN1CC1CC1)C2", 8.46),
    ("COc1ccc2c(c1)[C@]13CCN(CC4CC4)[C@H](C2)[C@]12CC[C@@](N)(CO2)C3", 5.95),
    ("COc1ccc2c(c1)[C@]13CCN(CC4CC4)[C@H](C2)[C@]12CC[C@@](N(C)C)(CO2)C3", 5.72),
    ("COc1ccc2c(c1)[C@]13CCN(CC4CC4)[C@H](C2)[C@]12CC[C@@](NC(=O)CC(F)(F)F)(CO2)C3", 6.38),
]

Here are 4 compounds. What values of pEC50 were reported for them?
1. COc1ccc2c(c1)[C@]13CCN(CC4CC4)[C@H](C2)[C@]12CC[C@@](NCc1ccccc1)(CO2)C3
2. COc1ccc2c(c1)[C@]13CCN(CC4CC4)[C@H](C2)[C@]12CC[C@@](NCC1CCCCC1)(CO2)C3
3. COc1ccc2c(c1)[C@]13CCN(CC4CC4)[C@H](C2)[C@]12CC[C@](N)(C3)C(=O)O2
4. COc1ccc2c(c1)[C@]13CCN(CC4CC4)[C@H](C2)[C@]12CC[C@@](NC(=O)C1CC1)(CO2)C3

Data returned:
[7.27, 8.75, 5.53, 6.03]
